- System: MS2 coat protein
- protocol-details: apparent KD of MS2 coat protein; designed switch direction (-1 OFF switch, 1 ON switch): -1; higher = weaker reporter binding
- stated-conditions: input ligand: none
readout-label: apparent KD of MS2 coat protein (nM)

{"residue-sequence": "GGGCCUGGUGUAGGAUAUCGUGGGCGGUGUCGGCGAGAAGGACAUGAGGAUCACCCAUGUCCGGGCUCGGGUUCCCGGGCUUGG [second try -37.9 kcal and 14% A] (Eterna round: R96, puzzle: Exclusion NG 1)", "unit-symbol": "nM", "measurement": 15.4}
{"residue-sequence": "UGAGAGAGUAUAGGAUAUUAGAGGAGAAUGGUGAUAGAGACAUGAGGAUCACCCAUGUGAGGAGAUAAGAAGGGUAAGAACUCA [AK ExNG2-V2-4] (Eterna round: R96, puzzle: Exclusion NG 2)", "unit-symbol": "nM", "measurement": 435}
{"residue-sequence": "CUUUUGUGAGGAUAUUUGUAGUAAAUAAAUAAAAUUACUACUGAGAAGGCACAUGAGGAUCACCCAUGUUCCUC [salish99_ex4_r3_042] (Eterna round: R96, puzzle: Exclusion 4)", "unit-symbol": "nM", "measurement": 28.6}
{"residue-sequence": "CCACGACAUGAGGAUCACCCAUGUGAGGAUAUGGCCUGAAAAGCGUGAGCAGUAUCAAUCAGAAGGCGCGUGGG [salish99_ex1_r4_061] (Eterna round: R97, puzzle: Exclusion 1)", "unit-symbol": "nM", "measurement": 76.4}
{"residue-sequence": "AAAUAGGCAGGAUAUACAUGAGGAUCACCCAUGUAAAUUUUUCGUUUAACUUGAAUGUGUAGAAGGGCCAUAAA [Ex3 #54] (Eterna round: R97, puzzle: Exclusion 3)", "unit-symbol": "nM", "measurement": 26.8}
{"residue-sequence": "AGUAGUUCAGGAUAUGAUGUUGAGUACAUGAGGAUCACCCAUGUAGGUCCUGGAUUUGCAUCAGAAGGGAAUAACU [JR_Ex5_Sub084] (Eterna round: R97, puzzle: Exclusion 5)", "unit-symbol": "nM", "measurement": 26.7}
{"residue-sequence": "GGUACUCAAAGAGUACCAAUACGAACAUGAGGAUCACCCAUGUAGGAUAUGCUACUCAAAGAGUAGCAGAAGGAUAUGAUGAAU [Far Half Aptamer v16] (Eterna round: R96, puzzle: Exclusion NG 3)", "unit-symbol": "nM", "measurement": 40.2}
{"residue-sequence": "UCGCGCCAAGGAUAUACAUGAGGAUCACCCAUGUUGAAAGAAAAGUUGUCCGGUCCCAGUAGAAGGUGGUUCCC [Eternabot (L2) Solution 90] (Eterna round: R97, puzzle: Exclusion 3)", "unit-symbol": "nM", "measurement": 58.4}
